Listed here are compounds together with their documented MIC.
test system: Pseudomonas aeruginosa IFO 3445; test: Antibacterial activity, agar-dilution MIC, organism No. 15; assay type: cell-based; settings: Pseudomonas aeruginosa, IFO3445; Organism No. 15, bouillon-agar; read-out: Minimum Inhibitory Concentration

{"compound": "[C-]#[N+]C12CC3(/C=C/C(=O)OCC(=O)c4ccc(Cl)cc4)OC3C1O2 (stereo not drawn)", "system under test": "Pseudomonas aeruginosa IFO 3445", "MIC": "> 100 µg/mL"}
{"compound": "[C-]#[N+]C12CC3(/C=C/C(=O)Nc4ccc5c(c4)CCC5)OC3C1O2 (stereo not drawn)", "system under test": "Pseudomonas aeruginosa IFO 3445", "MIC": "> 200 µg/mL"}
{"compound": "[C-]#[N+]C12CC3(/C=C/C(=O)N[C@@H](CCC(=O)OCc4ccccc4)C(=O)OCc4ccccc4)OC3C1O2 (stereo partly drawn)", "system under test": "Pseudomonas aeruginosa IFO 3445", "MIC": "> 200 µg/mL"}
{"compound": "[C-]#[N+]C12CC3(/C=C/C(=O)N4CCC[C@H]4C(=O)OCc4ccccc4)OC3C1O2 (stereo partly drawn)", "system under test": "Pseudomonas aeruginosa IFO 3445", "MIC": "> 200 µg/mL"}
{"compound": "[C-]#[N+]C12CC3(/C=C/C(=O)OCc4ccc([N+](=O)[O-])cc4)OC3C1O2 (stereo not drawn)", "system under test": "Pseudomonas aeruginosa IFO 3445", "MIC": "> 100 µg/mL"}
{"compound": "[C-]#[N+]C12CC3(/C=C/C(=O)Nc4cccc([N+](=O)[O-])c4)OC3C1O2 (stereo not drawn)", "system under test": "Pseudomonas aeruginosa IFO 3445", "MIC": "> 200 µg/mL"}
{"compound": "[C-]#[N+]C12CC3(/C=C/C(=O)Nc4ccccc4Cl)OC3C1O2 (stereo not drawn)", "system under test": "Pseudomonas aeruginosa IFO 3445", "MIC": "> 200 µg/mL"}
{"compound": "[C-]#[N+]C12CC3(/C=C/C(=O)N[C@@H](C(=O)OCc4ccccc4)C(C)C)OC3C1O2 (stereo partly drawn)", "system under test": "Pseudomonas aeruginosa IFO 3445", "MIC": "> 200 µg/mL"}
{"compound": "[C-]#[N+]C12CC3(/C=C/C(=O)NC4CCCCC4)OC3C1O2 (stereo not drawn)", "system under test": "Pseudomonas aeruginosa IFO 3445", "MIC": "> 200 µg/mL"}
{"compound": "[C-]#[N+]C12CC3(/C=C/C(=O)Nc4ccc(Cl)cc4)OC3C1O2 (stereo not drawn)", "system under test": "Pseudomonas aeruginosa IFO 3445", "MIC": "> 200 µg/mL"}
{"compound": "[C-]#[N+]C12CC3(/C=C/C(=O)OCc4cccc([N+](=O)[O-])c4)OC3C1O2 (stereo not drawn)", "system under test": "Pseudomonas aeruginosa IFO 3445", "MIC": "> 200 µg/mL"}
{"compound": "[C-]#[N+]C12CC3(/C=C/C(=O)Nc4cccc(C)c4)OC3C1O2 (stereo not drawn)", "system under test": "Pseudomonas aeruginosa IFO 3445", "MIC": "> 200 µg/mL"}
{"compound": "[C-]#[N+]C12CC3(/C=C/C(=O)Nc4ccc(C(=O)O)cc4)OC3C1O2 (stereo not drawn)", "system under test": "Pseudomonas aeruginosa IFO 3445", "MIC": "> 200 µg/mL"}
{"compound": "[C-]#[N+]C12CC3(/C=C/C(=O)N4CCOCC4)OC3C1O2 (stereo not drawn)", "system under test": "Pseudomonas aeruginosa IFO 3445", "MIC": "> 200 µg/mL"}
{"compound": "[C-]#[N+]C12CC3(/C=C/C(=O)OCC(=O)c4ccccc4)OC3C1O2 (stereo not drawn)", "system under test": "Pseudomonas aeruginosa IFO 3445", "MIC": "> 100 µg/mL"}

====

Test system: Escherichia coli K12 C600 IAM 1264
Assay: Antibacterial activity, agar-dilution MIC, organism No. 6
Format: cell-based
Conditions: Escherichia coli, IAM1264; Organism No. 6, bouillon-agar; read-out: Minimum Inhibitory Concentration
Description: Agar-dilution method was used for determination of the antibacterial activity and antifungal activity while using bouillon-agar culture medium, and the minimum inhibitory concentration of the specimen was expressed by μg/ml of the culture medium.

{"molecule": "[C-]#[N+]C12CC3(/C=C/C(=O)Nc4ccc(Br)cc4)OC3C1O2 (stereo not shown) [compound 44]", "system under test": "Escherichia coli K12 C600 IAM 1264", "unit label": "µg/mL", "qualifier operator": ">", "MIC": 200}
{"molecule": "[C-]#[N+]C12CC3(/C=C/C(=O)Nc4ccc(F)cc4)OC3C1O2 (stereo not shown) [compound 43]", "system under test": "Escherichia coli K12 C600 IAM 1264", "unit label": "µg/mL", "qualifier operator": "=", "MIC": 25}
{"molecule": "[C-]#[N+]C12CC3(/C=C/C(=O)OCc4cc([N+](=O)[O-])ccc4O)OC3C1O2 (stereo not shown) [Compound No. 17]", "system under test": "Escherichia coli K12 C600 IAM 1264", "unit label": "µg/mL", "qualifier operator": ">", "MIC": 200}
{"molecule": "[C-]#[N+]C12CC3(/C=C/C(=O)Nc4ccc(S(N)(=O)=O)cc4)OC3C1O2 (stereo not shown) [compound 63]", "system under test": "Escherichia coli K12 C600 IAM 1264", "unit label": "µg/mL", "qualifier operator": ">", "MIC": 200}
{"molecule": "[C-]#[N+]C12CC3(/C=C/C(=O)Nc4ccccc4N)OC3C1O2 (stereo not shown) [compound 61]", "system under test": "Escherichia coli K12 C600 IAM 1264", "unit label": "µg/mL", "qualifier operator": "=", "MIC": 12.5}
{"molecule": "[C-]#[N+]C12CC3(/C=C/C(=O)N[C@@H](CC(=O)OC)C(=O)OC)OC3C1O2 (stereo partly shown) [Compound No. 27]", "system under test": "Escherichia coli K12 C600 IAM 1264", "unit label": "µg/mL", "qualifier operator": "=", "MIC": 50}
{"molecule": "[C-]#[N+]C12CC3(/C=C/C(=O)OCC(=O)c4ccccc4)OC3C1O2 (stereo not shown) [Compound No. 3]", "system under test": "Escherichia coli K12 C600 IAM 1264", "unit label": "µg/mL", "qualifier operator": "=", "MIC": 50}
{"molecule": "[C-]#[N+]C12CC3(/C=C/C(=O)Nc4cccc(O)c4)OC3C1O2 (stereo not shown) [compound 57]", "system under test": "Escherichia coli K12 C600 IAM 1264", "unit label": "µg/mL", "qualifier operator": "=", "MIC": 12.5}
{"molecule": "[C-]#[N+]C12CC3(/C=C/C(=O)Nc4ccc(C)cc4)OC3C1O2 (stereo not shown) [compound 37]", "system under test": "Escherichia coli K12 C600 IAM 1264", "unit label": "µg/mL", "qualifier operator": "=", "MIC": 25}
{"molecule": "[C-]#[N+]C12CC3(/C=C/C(=O)N4CCCC4)OC3C1O2 (stereo not shown) [compound 21]", "system under test": "Escherichia coli K12 C600 IAM 1264", "unit label": "µg/mL", "qualifier operator": ">", "MIC": 200}
{"molecule": "[C-]#[N+]C12CC3(/C=C/C(=O)N[C@@H](C(=O)OCc4ccccc4)C(C)C)OC3C1O2 (stereo partly shown) [compound 30]", "system under test": "Escherichia coli K12 C600 IAM 1264", "unit label": "µg/mL", "qualifier operator": ">", "MIC": 200}
{"molecule": "[C-]#[N+]C12CC3(/C=C/C(=O)Nc4ccccc4C(N)=O)OC3C1O2 (stereo not shown) [compound 62]", "system under test": "Escherichia coli K12 C600 IAM 1264", "unit label": "µg/mL", "qualifier operator": ">", "MIC": 200}
{"molecule": "[C-]#[N+]C12CC3(/C=C/C(=O)ON4C(=O)CCC4=O)OC3C1O2 (stereo not shown) [Compound No. 9]", "system under test": "Escherichia coli K12 C600 IAM 1264", "unit label": "µg/mL", "qualifier operator": "=", "MIC": 50}

====

test system: Enterobacter cloacae 963; experiment: Antibacterial activity, agar-dilution MIC, organism No. 24; type: cell-based; details: Enterobacter cloacae, 963, read-out: Minimum Inhibitory Concentration
measured metric: MIC

{"compound": "[C-]#[N+]C12CC3(/C=C/C(=O)Nc4nc[nH]n4)OC3C1O2 (centres unmarked)", "measured metric": "MIC", "experimental value": "> 200 µg/mL"}
{"compound": "[C-]#[N+]C12CC3(/C=C/C(=O)Nc4ccc(O)cc4)OC3C1O2 (centres unmarked)", "measured metric": "MIC", "experimental value": "200 µg/mL"}
{"compound": "[C-]#[N+]C12CC3(/C=C/C(=O)NCCO)OC3C1O2 (centres unmarked)", "measured metric": "MIC", "experimental value": "> 200 µg/mL"}
{"compound": "[C-]#[N+]C12CC3(/C=C/C(=O)Nc4ccc(OC)cc4)OC3C1O2 (centres unmarked)", "measured metric": "MIC", "experimental value": "50 µg/mL"}
{"compound": "[C-]#[N+]C12CC3(/C=C/C(=O)Nc4ccncc4)OC3C1O2 (centres unmarked)", "measured metric": "MIC", "experimental value": "200 µg/mL"}
